Just for reference, ChEMBL document CHEMBL1857833 is where these values come from.

Measured % inhibition by item
- Tested on: Trypanosoma brucei
- assay text: DNDI: Inhibition of Human African Trypanosomiasis, SBRI 427, in vitro at 2 ug.mL-1
- Type: functional
Out of some 4,400 compounds screened, about 390 (8.9%) showed an effect of 50% or more. Shown is part of a subset that was picked to be rich in strong results.
Only the number, expressed in %, is required.

[ask] Could you share which % inhibition value was measured for COc1ccccc1Oc1ncccc1/C(=N/O)NCC1CC1 ?
[reply] 96

[ask] How about this molecule: COc1ccccc1CN/C(=N\O)c1cccnc1Oc1cccc(C)c1C
[reply] 7

[ask] How about this molecule: O/N=C(\NCc1ccccc1)c1cccnc1Oc1c(F)cccc1F
[reply] 3

[ask] How about this molecule: Cc1ccc(/C(=N/O)N(C)C2CCN(C)CC2)c(Oc2cccnc2)n1
[reply] 9

[ask] How about this molecule: COc1ccc(Oc2ncccc2/C(=N/O)NCC2CC2)cc1
[reply] 99

----------
Measured % inhibition by item
- Test system: Trypanosoma brucei
- assay text: DNDI: Inhibition of Human African Trypanosomiasis, SBRI 427, in vitro at 2 ug.mL-1
- Type: functional
Among all 4,400 compounds or so, about 390 (8.9%) showed an effect of 50% or more. The full list was thinned out, with strong results kept by preference.
Only the number, expressed in %, is required.

Worked cases, % inhibition given:
compound=O/N=C(\NCC1CCCCC1)c1ccc(Oc2c(F)c(F)cc(F)c2F)nc1 tested_system="Trypanosoma brucei" property_measured="% inhibition" reported_measurement=40
compound=COc1ccccc1CN/C(=N\O)c1cccnc1Oc1ccc(C(C)C)cc1 tested_system="Trypanosoma brucei" property_measured="% inhibition" reported_measurement=-4
compound="Cc1cc(Oc2ccc(/C(=N/O)NC3CCc4ccccc43)cn2)cc(C(C)C)c1 (centres undefined)" tested_system="Trypanosoma brucei" property_measured="% inhibition" reported_measurement=35

[ask] Could you share which % inhibition value was measured for Fc1ccc(N2CCN(Cc3coc(-c4ccco4)n3)CC2)cc1 ?
[reply] 13

[ask] How about this compound: O/N=C(\NCC1CCCO1)c1ccc(Oc2c(F)c(F)cc(F)c2F)nc1 (centres undefined)
[reply] 25

[ask] How about this compound: Cc1ccc(/C(=N/O)NC(C)C)c(Oc2cccc3ccc(C)nc23)n1
[reply] 31

[ask] How about this compound: CC1CC(N/C(=N\O)c2ccc(Oc3c(F)c(F)cc(F)c3F)nc2)CC(C)(C)C1 (centres undefined)
[reply] 22

[ask] How about this compound: O/N=C(\NC1CCC1)c1ccc(Oc2c(F)c(F)cc(F)c2F)nc1
[reply] 100

[ask] How about this compound: COCCN/C(=N\O)c1ccc(Oc2cc(C)cc(C(C)C)c2)nc1
[reply] 17

----------
Measured % inhibition by item
- Test system: Trypanosoma brucei
- assay text: DNDI: Inhibition of Human African Trypanosomiasis, SBRI 427, in vitro at 2 ug.mL-1
- Assay type: functional
In all, about 4,400 compounds went through this assay and about 390 (8.9%) showed an effect of 50% or more. The full list was thinned out, with strong results kept by preference.
Only the number, expressed in %, is required.

Worked cases, % inhibition given:
compound=CCCN(Cc1coc(-c2cccs2)n1)CC1CC1 reported_measurement=0
compound=Cn1nc(C(C)(C)C)cc1NCc1coc(-c2ccccc2Br)n1 reported_measurement=-43
compound=CCc1nccn1Cc1coc(-c2cccc(OC)c2)n1 reported_measurement=-9
compound=COc1cccc(-c2nc(Cn3ccnc3C=O)co2)c1 reported_measurement=84
compound=C=CCc1ccc(Oc2cc(/C(=N/O)NCc3cccnc3)ccn2)c(OC)c1 reported_measurement=3

[ask] Please state recorded % inhibition (tested on Trypanosoma brucei) of Brc1ccc(-c2nc(CNCc3ccccn3)co2)cc1
[reply] -9

[ask] How about this compound: Cc1ccc(/C(=N/O)N2CC(C)CC(C)C2)c(Oc2ccc3oc4ccccc4c3c2)n1 (configuration not stated)
[reply] 11

----------
Measured % inhibition by item
- Test system: Trypanosoma brucei
- assay text: DNDI: Inhibition of Human African Trypanosomiasis, SBRI 427, in vitro at 2 ug.mL-1
- Assay type: functional
Among all 4,400 compounds or so, about 390 (8.9%) showed an effect of 50% or more. The sample as a whole holds a higher share of strong results than the screen did.

Worked cases, % inhibition given:
compound=CN(CCC#N)Cc1coc(-c2cccc3ccccc23)n1 tested_system="Trypanosoma brucei" reported_measurement=7%
compound=CCc1ccc(Oc2ccc(/C(N)=N/O)cn2)cc1 tested_system="Trypanosoma brucei" reported_measurement=20%
compound=COc1ccc(-c2nc(Cn3nc(N)cc3C)co2)cc1 tested_system="Trypanosoma brucei" reported_measurement=25%
compound=CCC(C)(C)N/C(=N\O)c1cccnc1Oc1ccc(-n2cncn2)cc1 tested_system="Trypanosoma brucei" reported_measurement=45%
compound=CCN(Cc1ccccc1)Cc1coc(-c2cc(OC)c(OC)c(OC)c2)n1 tested_system="Trypanosoma brucei" reported_measurement=-20%

[ask] Could you share which % inhibition value was measured for CCCN/C(=N\O)c1ccc(C)nc1Oc1cccc(C(C)C)c1 ?
[reply] 4%

[ask] How about this compound: O/N=C(\NC1CCCC1)c1cccnc1Oc1ccc2c(c1)CCCC2
[reply] 1%

[ask] How about this compound: COc1ccc(CN/C(=N\O)c2ccnc(Oc3ccc(C)c4c3CCC4)c2)cc1
[reply] 21%

[ask] How about this compound: CSc1ccc(Oc2nc(C)ccc2/C(=N/O)NCc2ccccc2C)cc1
[reply] 7%

[ask] How about this compound: Cc1ccc(/C(=N/O)N2C(C)CCC2C)c(OCc2ccccc2C)n1 (centres undefined)
[reply] 21%

[ask] How about this compound: CC1CCCC(NCc2coc(-c3cccc(F)c3)n2)C1C (centres undefined)
[reply] 10%

[ask] How about this compound: CCCN(Cc1coc(-c2cccc(C)c2)n1)c1ccccc1
[reply] 7%

[ask] How about this compound: CCOc1ccc(-c2nc(Cn3nc(N)cc3C)co2)cc1
[reply] 99%

[ask] How about this compound: CCCCCCC(C)NCc1coc(-c2cccc(C)c2)n1 (centres undefined)
[reply] 0%

----------
- Tested on: Trypanosoma brucei
- assay text: DNDI: Inhibition of Human African Trypanosomiasis, SBRI 427, in vitro at 2 ug.mL-1
- Assay type: functional
The campaign covered roughly 4,400 compounds. About 390 (8.9%) showed an effect of 50% or more. The full list was thinned out, with strong results kept by preference.
property measured: % inhibition (%)
Only the number, expressed in %, is required.

Worked cases, % inhibition given:
molecule=c1ccc2c(-c3nc(CN4CCC5(CC4)OCCO5)co3)cccc2c1 reported_measurement=1
molecule="CC1CC(N/C(=N\\O)c2cccnc2Oc2cc(Cl)ccc2Cl)CC(C)(C)C1 (centres undefined)" reported_measurement=99
molecule="CCOC(=O)C1CCCCN1Cc1coc(-c2ccc(O)cc2)n1 (centres undefined)" reported_measurement=-1

[ask] Could you share which % inhibition value was measured for Cc1ccc(/C(=N/O)NCCN2CCOCC2)c(OCc2ccccn2)n1 ?
[reply] 4

[ask] How about this molecule: CCCCN(C)Cc1coc(-c2cccc3ccccc23)n1
[reply] 16

[ask] How about this molecule: Cc1ccc(/C(=N/O)NC2CC(C)CC(C)(C)C2)c(Oc2ccc(F)c(F)c2)n1 (centres undefined)
[reply] 11

[ask] How about this molecule: CC1CC(N/C(=N\O)c2cccnc2Oc2ccc(F)c(Cl)c2)CC(C)(C)C1 (centres undefined)
[reply] 100

[ask] How about this molecule: CCN(CC)Cc1coc(-c2ccc(C)cc2)n1
[reply] 1

[ask] How about this molecule: Fc1ccc(-c2nc(CNCC(c3ccccc3)c3ccccc3)co2)cc1
[reply] -33

----------
- Test system: Trypanosoma brucei
- assay text: DNDI: Inhibition of Human African Trypanosomiasis, SBRI 427, in vitro at 2 ug.mL-1
- Format: functional
About 390 (8.9%) of roughly 4,400 compounds showed an effect of 50% or more. Only a selection was taken, and strong results are over-represented in it overall.
property measured: % inhibition

Worked cases, % inhibition given:
compound=Cc1cccc(CNCc2coc(-c3ccc(O)cc3)n2)c1 reported_measurement=-10%
compound="C[C@H]1C(NCc2coc(-c3ccc(O)cc3)n2)C[C@@H]2C[C@H]1C2(C)C (some centres undefined)" reported_measurement=101%
compound=Cc1ccccc1-c1nc(CNCc2ccccn2)co1 reported_measurement=15%
compound="COc1ccc(-c2nc(CNC(C)c3cccc4ccccc34)co2)cc1 (centres undefined)" reported_measurement=13%
compound=Cc1ccc(/C(=N/O)NCC2CC2)c(Oc2cccc3c2CCCC3)n1 reported_measurement=-5%

[ask] Could you share which % inhibition value was measured for CCOc1ccccc1-c1nc(Cn2ncc3c2CCCC3)co1 ?
[reply] 12%

[ask] How about this compound: O/N=C(/c1cccnc1OCc1ccccc1F)n1ccnc1
[reply] -10%

[ask] How about this compound: CCOc1ccccc1-c1nc(Cn2ccnc2CC)co1
[reply] -1%

[ask] How about this compound: CCOC(=O)C1CCCN(Cc2coc(-c3cc(OC)c(OC)c(OC)c3)n2)C1 (centres undefined)
[reply] -16%

[ask] How about this compound: O/N=C(\NCc1ccccc1)c1cccnc1Oc1ccc(F)cc1Cl
[reply] 94%

[ask] How about this compound: CCc1nccn1Cc1coc(-c2ccc(Cl)cc2Cl)n1
[reply] 22%

[ask] How about this compound: CC(C)COc1ncccc1/C(=N/O)N1CCN(c2ccc(F)cc2)CC1
[reply] 0%

[ask] How about this compound: CCOc1ccc(-c2nc(CN(C)CCc3ccccc3)co2)cc1
[reply] 10%

[ask] How about this compound: COc1cccc(-c2nc(Cn3ccnc3C(C)C)co2)c1
[reply] 5%

[ask] How about this compound: C[C@@H]1C(NCc2coc(-c3ccc(O)cc3)n2)C[C@H]2C[C@@H]1C2(C)C (some centres undefined)
[reply] 26%

[ask] How about this compound: COc1cccc(CN/C(=N\O)c2ccnc(Oc3cccc4cccnc34)c2)c1
[reply] 35%

[ask] How about this compound: FC(F)(F)c1ccc(CNCc2coc(-c3cccs3)n2)cc1
[reply] -6%

[ask] How about this compound: CCC(C)(C)N/C(=N\O)c1ccc(C)nc1Oc1cc(C)cc(C)c1
[reply] 24%

[ask] How about this compound: CCOc1ccc(-c2nc(CNC3C[C@H]4C[C@@H]([C@@H]3C)C4(C)C)co2)cc1 (some centres undefined)
[reply] -5%

[ask] How about this compound: CC(C)c1nccn1Cc1coc(-c2ccc(Cl)cc2Cl)n1
[reply] -20%

[ask] How about this compound: Clc1ccc(-c2nc(Cn3ccnc3)co2)c(Cl)c1
[reply] 5%

[ask] How about this compound: Cn1nc(C(C)(C)C)cc1NCc1coc(-c2cccc3ccccc23)n1
[reply] 25%

[ask] How about this compound: Clc1ccccc1-c1nc(CNC(Cc2ccccc2)c2ccccc2)co1 (centres undefined)
[reply] -20%

[ask] How about this compound: CCOc1ccc(-c2nc(CNC3C[C@H]4CC[C@@H]3C4)co2)cc1 (some centres undefined)
[reply] 11%

[ask] How about this compound: Cc1ccc(CN/C(=N\O)c2cccnc2Oc2cc(Cl)ccc2Cl)o1
[reply] 100%

[ask] How about this compound: FC(F)(F)c1ccc(-c2nc(CNc3ccc(Oc4ccccc4)cc3)co2)cc1
[reply] 4%

[ask] How about this compound: CCOc1ccc(Oc2cc(/C(=N/O)NCc3ccccc3OC)ccn2)cc1
[reply] 0%

[ask] How about this compound: COc1ccc(Oc2ncccc2/C(=N/O)NCc2ccc(C)o2)cc1
[reply] 5%

[ask] How about this compound: Clc1ccccc1-c1nc(CNCc2ccco2)co1
[reply] -7%

[ask] How about this compound: Fc1cccc(-c2nc(CN3CCN(c4ncccn4)CC3)co2)c1
[reply] 6%

[ask] How about this compound: CSc1ccc(Oc2nc(C)ccc2/C(=N/O)NCC(C)C)cc1C
[reply] -14%
